Ref: PubChem BioAssay (NCI)

Test system: SW-620 colon
Assay: NCI-60 one-dose screen, 48 h (100 = growth as untreated, 0 = no growth, -100 = all killed)
Conditions: 10 µM unless noted
Description: Growth inhibition of the SW-620 human tumor cell line is measured as a screen for anti-cancer activity. Cells are grown in 96 well plates and exposed to the test compound for 48 hours. Compounds are tested at a single concentration, which is 10^-5 M for most compounds. The reported endpoint is percent growth (GI% or GIPRCNT), where numbers from 0 - 100% represent growth inhibition, and numbers from -100% - 0 represent cell death. For example, a value of 40 represents 60% growth inhibition. […]
About 83,000 compounds went through this panel and 20% of them were active in at least one assay; those are over-represented in the sample as a whole.
measured-property: growth (%)
// units = %; emit number, no label

Reference set, count: 9
| compound-structure | growth, % |
| --- | --- |
| NC1=NN=C(N)C1=Cc1cc2ccccc2n2nnnc12 | 98.2 |
| O=C(CSc1nc2sc3c(c2c(=O)n1-c1ccc(Cl)cc1)CCCC3)Nc1nc(-c2cccc(Br)c2)cs1 | 78.9 |
| COc1ccc(N2CCN(c3ccc(NC4=C(Cl)C(=O)c5ncccc5C4=O)cc3)CC2)cc1 | 15.9 |
| Cc1ccc(-n2c3c(c(-c4ccccc4)c2-c2ccccc2)C2=NCCN2C=N3)cc1 | 89.9 |
| COc1ccc(/C=C/c2nc(Nc3cccc(NC(C)=O)c3)c3ccccc3n2)cc1 | 92.1 |
| CCCCCC(=O)Oc1ccc(/C(=C(/C)Cc2ccc(OC)cc2)c2ccc(OCCCN(C)C)cc2)cc1 | 82.4 |
| CCCCCCOc1ccc(/C=N/Nc2cc(C)nc3ccc(Cl)cc23)cc1 | -83.3 |
| CC(=O)Nc1cccc(-c2ccc3c(c2)NC(=O)/C3=C\c2ccc[nH]2)c1 | 37.9 |
| N#C/C(=C\c1ccc(C(F)(F)F)cc1)c1cc2ccccc2[nH]1 | 100 |

// growth lookup, compound = O=C(O)c1ccc2c(c1)C(=O)N(Cc1ccccc1)C2=O , result: 98.6

----------
System: OVCAR-4 ovarian
Assay: NCI-60 one-dose screen, 48 h
Details: 10 µM unless noted
The panel holds about 83,000 compounds, 20% with a hit somewhere; the sample as a whole holds those more often. Active and inactive are the calls of the source. How the source made its calls: active means growth percent below 10; inactive means the rest.
Answer with one of the outcomes true (1) for active, false (0) for inactive

| molecule | answer-label |
| --- | --- |
| COc1cc2oc(-c3cccc(C(=O)Nc4ccc(Cl)cc4)c3)cc(=O)c2c(O)c1OC | true (1) |

Query: Just curious, what result did CCOc1cccc(-c2nc(N)nc(Nc3ccccc3SSc3ccccc3Nc3nc(N)nc(-c4cccc(OCC)c4)n3)n2)c1 get here?
Reply: false (0)

Query: Just curious, what result did COc1ccc(C(C)=O)c(OC)c1 get here?
Reply: false (0)

Query: Just curious, what result did CCCCCCNC(=O)Oc1ccc(/C(=C(\C)c2ccccc2)c2ccc(OCCCN(C)C)cc2)cc1 get here?
Reply: false (0)

Query: Just curious, what result did CN(C)CCn1c2ccc(Br)cc2c2nc3ccccc3nc21 get here?
Reply: false (0)

Query: Just curious, what result did CC1=C(C(=O)/C=C/c2ccc(N(C)C)cc2)C(c2ccccc2)NC(=S)N1 (stereo not given) get here?
Reply: false (0)

Query: Just curious, what result did c1ccc2c(-c3nccs3)c[nH]c2c1 get here?
Reply: false (0)

Query: Just curious, what result did Cn1ccnc1C(=O)/C=C/c1ccc(CC(=O)NC2CCCCC2)cc1 get here?
Reply: false (0)

Query: Just curious, what result did Cc1nn(-c2ccccc2)c(Cl)c1/C=N\N=c1/sc2ccccc2n1C get here?
Reply: false (0)

Query: Just curious, what result did Oc1c(Cl)cc(Cl)c(Cl)c1CNCCNCc1c(O)c(Cl)cc(Cl)c1Cl get here?
Reply: false (0)

Query: Just curious, what result did CCOC(=O)c1cc(C(=O)c2ccc(OC)c(OC)c2)n2c1ccc1ccccc12 get here?
Reply: false (0)

----------
Test system: OVCAR-8 ovarian
Assay: NCI-60 one-dose screen, 48 h (100 = growth as untreated, 0 = no growth, -100 = all killed)
Conditions: 10 µM unless noted
About 83,000 compounds went through this panel and 20% of them were active in at least one assay; those are over-represented in the sample as a whole.
Hi, to clarify the labels: Condition met covers growth from 70% upward, Condition not met covers anything below 70%.

Example entries and their recorded answers appear below.
| compound | answer-label |
| --- | --- |
| CC1=C(C(=O)/C=C/c2c[nH]c3ccccc23)C(c2ccccc2)NC(=S)N1 (stereo unspecified) | Condition met |
| N#Cc1c(-c2cccc([N+](=O)[O-])c2)nc(SCC(=O)c2ccc(Cl)cc2)[nH]c1=O | Condition met |
| COC(=O)C1=C(C(=O)ON)C2C=CC1(C(Cc1ccccc1)Nc1ccccc1)O2 (stereo unspecified) | Condition met |
| OCc1cnccc1NCCCOc1ccccc1 | Condition met |
| CSc1nc2sc3cccc(Cl)c3n2c(=N)c1C#N | Condition met |

Query: Does growth meet or surpass 70% for Oc1c(Cl)cc(Cl)c(Cl)c1CNCCNCc1c(O)c(Cl)cc(Cl)c1Cl ?
Reply: Condition not met

Query: Does growth meet or surpass 70% for COc1ccc(C(=O)c2cc(C)c(OC)c(C)c2)c(OC)c1N(C(=O)CCl)C(=O)CCl ?
Reply: Condition not met

Query: Does growth meet or surpass 70% for COc1ccc(/C=C/c2nc(Nc3ccc(Cl)cc3)c3ccccc3n2)cc1 ?
Reply: Condition not met

Query: Does growth meet or surpass 70% for CC(C)(C)c1cc(C=O)cc(C(C)(C)C)c1O ?
Reply: Condition met

Query: Does growth meet or surpass 70% for COc1cc(/C(C)=C(\c2ccc(Cl)cc2)c2ccc(OCCN(C)C)cc2)ccc1F ?
Reply: Condition met

Query: Does growth meet or surpass 70% for O=C1Nc2ccc(F)cc2/C1=C\c1c(-c2ccccc2)nc2ccccn12 ?
Reply: Condition met

----------
System: ACHN renal
Assay: NCI-60 one-dose screen, 48 h
Conditions: 10 µM unless noted
The panel holds about 83,000 compounds, 20% with a hit somewhere; the sample as a whole holds those more often. The source made the active and inactive calls. The calls were made as follows: active = growth percent below 10; inactive = the rest.
Answer with one of the outcomes active, inactive

Example entries and their recorded answers appear below.
| compound | answer-label |
| --- | --- |
| CC(c1ccccc1)C(C(=O)c1ccccc1)c1ccccc1 (configuration not stated) | inactive |
| COc1cc(/C=C\c2cc(OC)c(OC)c(OC)c2)cc(N)c1OC | inactive |
| Cc1ccc(-c2csc(NC(=O)CSc3nc(-c4ccccc4)cc(=O)[nH]3)n2)cc1 | inactive |
| CC1=CCC(OC(=O)C(C)(O)CCC(O)(C(=O)OC2(C)C=CC(O)(C(C)C)CC2)C(C)C)(C(C)C)CC1 (configuration not stated) | inactive |
| COc1ccc2[nH]c(O)c(/C=c3/cc4c(c(-c5ccc(F)cc5)n3)=Nc3ccccc3-4)c2c1 | inactive |
| C=C1C(=O)O[C@H]2[C@H]1CC/C(COC(=O)NCc1c[nH]c3ccc(Br)cc13)=C\CC[C@@]1(C)O[C@@H]21 | active |
| CCCCC[n+]1ccc(SCC(=O)N(C)c2ccc(Oc3ccccc3)cc2)c2ccccc21 | inactive |
| N#CC1=C(N)Oc2c(cnn2-c2ccc([N+](=O)[O-])cc2[N+](=O)[O-])C1c1ccccc1 (configuration not stated) | inactive |

Next:
Query: Just curious, what result did Cc1ccc(-n2nc3c(c(C#N)c2=O)CC(c2ccccc2[N+](=O)[O-])C([N+](=O)[O-])=C3O)cc1 (configuration not stated) get here?
Reply: inactive

----------
System: MDA-MB-231 breast
Test: NCI-60 one-dose screen, 48 h (100 = growth as untreated, 0 = no growth, -100 = all killed)
Details: 10 µM unless noted
Compounds without any hit were thinned out: in the full panel of roughly 83,000, 20% have a hit. Calls of active or inactive are those of the source. The calls were made as follows: active = growth percent below 10; inactive = the rest.
measured-property: growth

| compound | target-of-assay | result |
| --- | --- | --- |
| O=C1Nc2cc(-c3cccc(O)c3)ccc2/C1=C/c1ccc[nH]1 | MDA-MB-231 breast | -15.8% (active) |
| O=C(CCN1CCCC1)Nc1ccc2c(NCCCCc3ccccc3)c3ccccc3nc2c1 | MDA-MB-231 breast | -74.9% (active) |
| NC1[C@H](c2c[nH]c3ccccc23)c2c([nH]c3ccccc23)[C@H]1c1c[nH]c2ccccc12 (stereo not given in full) | MDA-MB-231 breast | 75.7% (inactive) |
| CCOC(=O)C1=C(CCl)NC(=O)NC1c1ccc2c(c1)OCO2 (stereo not given) | MDA-MB-231 breast | 39.4% (inactive) |

Now for another entry.
Note to self: growth of CC(=O)[C@@H]1CC[C@]2(C(N)=O)CC[C@]3(C)[C@H](CC[C@@H]4[C@@]5(C)CCCNC(C)(C)[C@@H]5CC[C@]43C)[C@@H]12 with MDA-MB-231 breast was 106% (inactive)
